# Measured Target: factor Xa (Bos taurus)
pKi: −log10 of the molar value. Structures can show the parent of a compound that is named as a salt.
Use true when the recorded pKi is no lower than 7; use false when it is lower.

{"Compound": "N=C(N)c1ccc(CNC(=O)[C@H](CO)NC(=O)[C@@H](CCc2ccc(O)cc2)NS(=O)(=O)Cc2ccccc2)cc1 [Compound 6, Bzls-d-homoTyr-Ser-4Amba×TFA]", "Answer Label": "true"}
{"Compound": "N=C(N)c1ccc(CNC(=O)[C@H](CCCC(=O)O)NC(=O)[C@@H](CCc2ccccc2)NS(=O)(=O)Cc2ccccc2)cc1 [Compound 53]", "Answer Label": "true"}
{"Compound": "N=C(N)c1ccc(CNC(=O)CNC(=O)[C@@H](CCc2ccc(O)cc2)NS(=O)(=O)Cc2ccc(N)cc2)cc1 [Compound 27]", "Answer Label": "true"}
{"Compound": "N=C(N)c1ccc(CNC(=O)CNC(=O)[C@@H](CCc2ccccc2)NS(=O)(=O)Cc2cccc(O)c2)cc1 [Compound 42]", "Answer Label": "true"}
{"Compound": "N=C(N)c1ccc(CNC(=O)[C@H](CCC(=O)O)NC(=O)[C@@H](CCc2ccccc2)NS(=O)(=O)Cc2ccccc2)cc1 [Compound 50]", "Answer Label": "true"}
{"Compound": "N=C(N)c1ccc(CNC(=O)[C@H](CCC(=O)OCc2ccccc2)NC(=O)C(CCc2ccncc2)NS(=O)(=O)Cc2ccccc2)cc1 (stereo partly drawn) [Compound 39]", "Answer Label": "true"}
{"Compound": "N=C(N)c1ccc(CNC(=O)[C@H](CO)NC(=O)[C@@H](CCc2ccccc2)NS(=O)(=O)Cc2ccccc2)cc1 [Compound 15]", "Answer Label": "true"}
{"Compound": "N=C(N)c1ccc(CNC(=O)[C@H](CO)NC(=O)[C@@H](CCc2ccccc2)NS(=O)(=O)Cc2ccncc2)cc1 [Compound 7, 4-PMs-dhomoPhe-Gly-4Amba×2 TFA]", "Answer Label": "false"}
{"Compound": "CS(=O)(=O)N[C@H](CCc1ccccc1)C(=O)NCC(=O)NCc1ccc(C(=N)N)cc1 [Compound 62]", "Answer Label": "false"}

---

# Measured Target: Thrombin (UniProt P00735)
Reported Property: Ki (nM)

{"Compound": "N=C(N)c1ccc(CNC(=O)CNC(=O)[C@@H](CNc2ccncc2)NS(=O)(=O)Cc2ccccc2)cc1", "Reported Property": "Ki", "Measurement": 2800}
{"Compound": "N=C(N)c1ccc(CNC(=O)[C@H](CCCC(=O)O)NC(=O)[C@@H](CCc2ccccc2)NS(=O)(=O)Cc2ccccc2)cc1", "Reported Property": "Ki", "Measurement": 800}
{"Compound": "N=C(N)c1ccc(CNC(=O)[C@H](CCC(=O)O)NC(=O)[C@@H](CCc2ccncc2)NS(=O)(=O)Cc2ccc(N)cc2)cc1 [Compound 26]", "Reported Property": "Ki", "Measurement": 25000}
{"Compound": "N=C(N)c1ccc(CNC(=O)CNC(=O)[C@@H](CCc2ccccc2)NS(=O)(=O)Cc2cccc(O)c2)cc1", "Reported Property": "Ki", "Measurement": 1500}

---

Each entry below carries its reported pKi.
# Measured Target: factor Xa (Bos taurus, UniProt P00743)
# Sequence (P00743 234-492 limits assumed): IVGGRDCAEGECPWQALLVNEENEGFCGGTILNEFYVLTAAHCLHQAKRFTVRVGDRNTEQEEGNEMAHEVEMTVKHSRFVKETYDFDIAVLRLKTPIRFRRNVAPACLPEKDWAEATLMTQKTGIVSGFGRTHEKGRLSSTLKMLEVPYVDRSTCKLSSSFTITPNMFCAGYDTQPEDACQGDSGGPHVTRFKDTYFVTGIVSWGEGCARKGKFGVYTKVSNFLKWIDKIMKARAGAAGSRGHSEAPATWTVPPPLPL
# Sequence (P00743 41-180 partner limits assumed): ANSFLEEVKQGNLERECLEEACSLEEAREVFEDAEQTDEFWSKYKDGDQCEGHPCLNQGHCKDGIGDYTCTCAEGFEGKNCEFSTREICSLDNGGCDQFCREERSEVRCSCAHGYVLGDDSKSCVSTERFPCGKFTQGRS
pKi: −log10 of the molar value.

{"Molecule Smiles": "N=C(N)c1ccc(CNC(=O)[C@H](CCC(=O)O)NC(=O)[C@@H](CCc2ccc(O)cc2)NS(=O)(=O)Cc2ccccc2)cc1", "pKi": 8.43}
{"Molecule Smiles": "N=C(N)c1ccc(CNC(=O)CNC(=O)[C@@H](CNc2ccncc2)NS(=O)(=O)Cc2ccccc2)cc1", "pKi": 7.66}
{"Molecule Smiles": "N=C(N)c1ccc(CNC(=O)CNC(=O)[C@H](NS(=O)(=O)Cc2ccccc2)C2Cc3ccccc3C2)cc1", "pKi": 7.54}
{"Molecule Smiles": "N=C(N)c1ccc(CNC(=O)CNC(=O)[C@@H](CCc2ccccc2)NS(=O)(=O)Cc2ccncc2)cc1", "pKi": 7.10}
{"Molecule Smiles": "N=C(N)c1ccc(CNC(=O)[C@H](CCC(=O)O)NC(=O)[C@@H](CCc2ccncc2)NS(=O)(=O)Cc2ccc(N)cc2)cc1", "pKi": 8.77}
{"Molecule Smiles": "N=C(N)c1ccc(CNC(=O)CNC(=O)[C@@H](CCc2ccccc2)NS(=O)(=O)Cc2cc[n+]([O-])cc2)cc1", "pKi": 6.01}
{"Molecule Smiles": "N=C(N)c1ccc(CNC(=O)CNC(=O)[C@@H](CCCc2ccccc2)NS(=O)(=O)Cc2ccccc2)cc1", "pKi": 7.17}
